biological target: Mitogen-activated protein kinase 8 (Homo sapiens); test: Selectivity interaction (ActivX KiNative profiling assay (in HCT-116 cell line (CRL-1619))) EUB0000642a MAPK8
Sequence (P45983 whole entry): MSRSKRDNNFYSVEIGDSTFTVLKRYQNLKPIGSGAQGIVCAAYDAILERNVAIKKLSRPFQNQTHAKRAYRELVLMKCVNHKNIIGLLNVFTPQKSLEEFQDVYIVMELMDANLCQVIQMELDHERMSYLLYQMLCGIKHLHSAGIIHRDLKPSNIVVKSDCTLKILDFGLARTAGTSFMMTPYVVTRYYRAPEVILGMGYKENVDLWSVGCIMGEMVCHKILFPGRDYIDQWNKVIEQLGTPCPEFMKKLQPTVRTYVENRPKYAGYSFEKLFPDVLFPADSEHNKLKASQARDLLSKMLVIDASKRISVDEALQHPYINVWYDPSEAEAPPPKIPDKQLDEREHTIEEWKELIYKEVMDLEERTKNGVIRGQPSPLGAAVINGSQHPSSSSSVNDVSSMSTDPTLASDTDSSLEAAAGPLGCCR
observable: IC50 (nM)
Numeric only. Scale: nM

Problem: Form entry - test system: Mitogen-activated protein kinase 8 (Homo sapiens); read-out: IC50; compound: CNC(=O)c1ccc(Nc2nc(OC3CCCC3)c3c(-c4ccc5nc(C)oc5c4)c[nH]c3n2)c(OC)c1
Solution: 680

----------
target: UniProtKB P24941; experiment: Selectivity interaction (Enzymatic assay) EUB0000624a CDK2
observable: IC50

Problem: # IC50 lookup, item CCOc1ccn(-c2ccc(F)cc2)c(=O)c1C(=O)Nc1ccc(Oc2ccnc(N)c2Cl)c(F)c1 [BMS-777607]
Solution: > 2000 nM

----------
molecular target: DNA (cytosine-5)-methyltransferase 1 (Homo sapiens); experiment: Selectivity interaction (Methyltransferase panel (Scintillation proximity assay (SPA))) EUB0000212b DNMT1
Sequence (P26358 whole entry): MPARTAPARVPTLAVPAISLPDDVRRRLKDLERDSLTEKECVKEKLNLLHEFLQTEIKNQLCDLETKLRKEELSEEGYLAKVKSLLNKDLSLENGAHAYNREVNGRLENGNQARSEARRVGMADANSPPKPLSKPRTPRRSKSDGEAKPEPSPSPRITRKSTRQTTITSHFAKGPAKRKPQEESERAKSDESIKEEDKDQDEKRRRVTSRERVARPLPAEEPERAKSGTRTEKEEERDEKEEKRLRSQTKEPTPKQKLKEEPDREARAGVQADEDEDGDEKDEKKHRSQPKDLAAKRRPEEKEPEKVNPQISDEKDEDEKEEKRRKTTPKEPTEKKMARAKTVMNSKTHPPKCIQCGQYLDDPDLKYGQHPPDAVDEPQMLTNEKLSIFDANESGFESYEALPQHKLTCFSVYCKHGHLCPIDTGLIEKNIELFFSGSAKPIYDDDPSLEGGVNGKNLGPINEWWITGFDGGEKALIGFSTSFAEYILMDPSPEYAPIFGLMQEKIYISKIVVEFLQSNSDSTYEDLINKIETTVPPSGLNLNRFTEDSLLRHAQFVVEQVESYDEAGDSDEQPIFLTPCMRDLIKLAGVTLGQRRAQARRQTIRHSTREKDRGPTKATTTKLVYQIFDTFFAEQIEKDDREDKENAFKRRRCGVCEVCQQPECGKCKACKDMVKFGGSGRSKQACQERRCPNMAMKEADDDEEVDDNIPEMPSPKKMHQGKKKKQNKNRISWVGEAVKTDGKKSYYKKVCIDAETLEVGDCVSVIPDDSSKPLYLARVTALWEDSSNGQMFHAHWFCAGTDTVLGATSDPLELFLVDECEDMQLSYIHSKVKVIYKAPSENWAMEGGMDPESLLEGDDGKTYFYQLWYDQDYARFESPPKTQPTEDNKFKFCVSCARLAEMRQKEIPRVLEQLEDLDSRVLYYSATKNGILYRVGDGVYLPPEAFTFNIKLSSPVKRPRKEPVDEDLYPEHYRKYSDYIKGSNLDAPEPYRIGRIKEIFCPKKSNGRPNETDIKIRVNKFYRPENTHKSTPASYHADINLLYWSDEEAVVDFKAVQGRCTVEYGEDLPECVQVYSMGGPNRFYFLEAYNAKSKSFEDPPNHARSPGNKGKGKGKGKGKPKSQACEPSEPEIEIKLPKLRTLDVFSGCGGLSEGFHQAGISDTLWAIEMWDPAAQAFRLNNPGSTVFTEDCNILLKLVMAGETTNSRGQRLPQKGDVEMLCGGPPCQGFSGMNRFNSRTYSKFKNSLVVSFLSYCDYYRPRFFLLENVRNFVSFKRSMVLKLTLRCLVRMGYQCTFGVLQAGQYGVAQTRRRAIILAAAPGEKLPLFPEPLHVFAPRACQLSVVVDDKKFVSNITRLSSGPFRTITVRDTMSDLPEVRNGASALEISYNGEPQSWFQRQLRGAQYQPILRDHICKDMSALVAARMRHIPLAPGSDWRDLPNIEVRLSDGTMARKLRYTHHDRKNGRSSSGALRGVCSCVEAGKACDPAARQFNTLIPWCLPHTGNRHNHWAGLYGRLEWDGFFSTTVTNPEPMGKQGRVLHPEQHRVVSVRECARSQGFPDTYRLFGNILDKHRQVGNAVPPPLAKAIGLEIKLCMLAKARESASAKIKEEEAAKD
observable: EC50

Problem: # EC50 lookup, item COc1cc2c(cc1OCCCN1CCCC1)N=C(N)C21CCC1
Solution: > 50 µM

----------
target: UniProtKB Q9BXF3; assay: Selectivity interaction (Bromodomain panel (TR-FRET assay)) EUB0000283b CECR2
Sequence (Q9BXF3 whole entry): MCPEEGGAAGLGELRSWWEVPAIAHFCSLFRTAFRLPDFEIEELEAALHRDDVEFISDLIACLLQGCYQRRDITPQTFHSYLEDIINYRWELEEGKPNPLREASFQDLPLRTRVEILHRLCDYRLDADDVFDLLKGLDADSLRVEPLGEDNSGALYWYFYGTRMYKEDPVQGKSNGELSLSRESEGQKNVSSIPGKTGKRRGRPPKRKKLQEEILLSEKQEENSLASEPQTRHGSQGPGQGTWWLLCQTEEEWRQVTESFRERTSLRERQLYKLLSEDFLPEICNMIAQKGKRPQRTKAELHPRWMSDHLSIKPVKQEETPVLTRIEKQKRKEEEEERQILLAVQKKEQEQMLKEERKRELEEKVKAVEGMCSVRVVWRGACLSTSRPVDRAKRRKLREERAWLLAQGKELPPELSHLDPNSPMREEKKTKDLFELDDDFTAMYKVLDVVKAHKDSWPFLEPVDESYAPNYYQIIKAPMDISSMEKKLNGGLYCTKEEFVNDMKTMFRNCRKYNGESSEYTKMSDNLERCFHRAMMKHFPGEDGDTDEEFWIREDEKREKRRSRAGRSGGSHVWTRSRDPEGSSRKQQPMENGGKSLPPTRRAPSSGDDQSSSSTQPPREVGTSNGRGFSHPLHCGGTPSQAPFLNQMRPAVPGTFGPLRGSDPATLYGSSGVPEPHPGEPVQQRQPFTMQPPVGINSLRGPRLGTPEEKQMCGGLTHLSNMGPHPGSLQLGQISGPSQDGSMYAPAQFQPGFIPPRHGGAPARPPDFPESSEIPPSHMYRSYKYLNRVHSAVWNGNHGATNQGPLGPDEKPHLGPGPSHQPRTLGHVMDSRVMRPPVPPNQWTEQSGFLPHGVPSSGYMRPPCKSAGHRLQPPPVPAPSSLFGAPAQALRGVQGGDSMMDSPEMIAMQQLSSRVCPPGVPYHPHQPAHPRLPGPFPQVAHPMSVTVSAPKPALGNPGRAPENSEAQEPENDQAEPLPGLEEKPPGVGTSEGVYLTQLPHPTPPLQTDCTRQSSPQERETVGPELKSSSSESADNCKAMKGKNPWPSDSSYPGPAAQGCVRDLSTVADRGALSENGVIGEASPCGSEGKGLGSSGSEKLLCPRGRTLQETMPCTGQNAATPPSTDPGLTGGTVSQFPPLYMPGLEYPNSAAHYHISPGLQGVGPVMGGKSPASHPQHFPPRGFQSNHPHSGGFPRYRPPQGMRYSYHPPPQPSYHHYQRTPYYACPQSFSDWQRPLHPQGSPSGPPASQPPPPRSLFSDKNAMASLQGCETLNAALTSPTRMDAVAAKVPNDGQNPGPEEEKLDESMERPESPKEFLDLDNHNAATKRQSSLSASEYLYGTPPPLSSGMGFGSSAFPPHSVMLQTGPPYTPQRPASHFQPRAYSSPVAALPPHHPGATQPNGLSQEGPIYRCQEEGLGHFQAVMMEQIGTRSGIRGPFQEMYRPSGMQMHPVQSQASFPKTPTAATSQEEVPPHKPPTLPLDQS
pIC50: −log10 of the molar value.
observable: pIC50

Problem: # pIC50 lookup, item C[C@H]1CCCN1Cc1nc2cc(NC(=O)c3ccc4cnccc4c3)ccc2[nH]1
Solution: < 4.40

----------
molecular target: Acetylcholinesterase (Homo sapiens, UniProt P22303); experiment: Selectivity interaction (NIBR principial panel (12 GPCRs, 3 nuclear receptors, 3 transporters, and 7 other enzymes)) EUB0000254b ACHE
Sequence (P22303 whole entry): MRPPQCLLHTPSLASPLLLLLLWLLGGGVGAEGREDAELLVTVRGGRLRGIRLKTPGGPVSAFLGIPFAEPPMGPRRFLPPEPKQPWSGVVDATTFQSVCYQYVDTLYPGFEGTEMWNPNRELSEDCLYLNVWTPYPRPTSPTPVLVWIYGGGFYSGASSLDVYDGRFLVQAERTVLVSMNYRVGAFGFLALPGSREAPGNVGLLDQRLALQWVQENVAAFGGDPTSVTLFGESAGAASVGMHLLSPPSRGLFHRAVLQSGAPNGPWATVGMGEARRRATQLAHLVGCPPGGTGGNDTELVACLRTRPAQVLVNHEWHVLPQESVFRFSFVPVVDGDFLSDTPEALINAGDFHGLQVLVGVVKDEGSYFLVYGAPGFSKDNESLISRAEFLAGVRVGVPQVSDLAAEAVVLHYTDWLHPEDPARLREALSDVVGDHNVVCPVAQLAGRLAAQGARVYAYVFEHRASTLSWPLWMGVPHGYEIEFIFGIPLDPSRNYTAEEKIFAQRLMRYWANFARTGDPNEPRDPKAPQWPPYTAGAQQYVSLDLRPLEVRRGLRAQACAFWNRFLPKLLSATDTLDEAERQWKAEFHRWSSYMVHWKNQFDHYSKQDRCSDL
observable: pIC50
Convention used: pIC50 is expressed as -log10 of the molar concentration.

Problem: # pIC50 lookup, item Cc1c(Nc2ccc(S(=O)(=O)N3CCN(C)CC3)cc2F)nc2ccc(Nc3cnn(C4CC4)c3)cn2c1=O
Solution: 5.26

----------
target: Tyrosine-protein kinase Fer (Homo sapiens, UniProt P16591); assay: Selectivity interaction (Z’-LYTE assay (SelectScreen Invitrogen)) EUB0000690a FER
observable: Ki (nM)
Numeric only. Scale: nM

Problem: Form entry - test system: Tyrosine-protein kinase Fer (Homo sapiens, UniProt P16591); read-out: Ki; molecule: C[C@H]1Oc2cc(cnc2N)-c2c(nn(C)c2C#N)CN(C)C(=O)c2ccc(F)cc21
Solution: 3.3

----------
target: 5-hydroxytryptamine receptor 2B (Homo sapiens); assay: Selectivity interaction (CEREP panel (cellular receptors and 30 other enzymes)) EUB0000199c HTR2B
Sequence (P41595 whole entry): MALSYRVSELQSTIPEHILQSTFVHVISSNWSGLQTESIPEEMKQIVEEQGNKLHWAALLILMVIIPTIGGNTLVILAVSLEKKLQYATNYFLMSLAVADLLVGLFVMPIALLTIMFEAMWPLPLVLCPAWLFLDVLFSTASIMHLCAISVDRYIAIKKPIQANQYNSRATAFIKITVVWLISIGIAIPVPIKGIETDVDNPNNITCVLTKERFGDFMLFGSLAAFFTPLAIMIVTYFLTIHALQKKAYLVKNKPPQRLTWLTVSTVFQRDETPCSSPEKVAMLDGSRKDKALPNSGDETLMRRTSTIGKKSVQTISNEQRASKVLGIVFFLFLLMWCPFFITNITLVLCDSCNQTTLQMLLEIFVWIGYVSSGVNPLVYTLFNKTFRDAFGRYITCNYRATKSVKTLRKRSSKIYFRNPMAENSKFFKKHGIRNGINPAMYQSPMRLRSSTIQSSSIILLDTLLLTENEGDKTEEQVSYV
observable: pIC50
Convention used: pIC50 is expressed as -log10 of the molar concentration.

Problem: # pIC50 lookup, item O=C(/C=C/N1C[C@H]2C[C@@H]1CN2c1ccccn1)c1ccccc1O
Solution: 5.40

----------
molecular target: Plasma kallikrein (Homo sapiens); experiment: Selectivity interaction (Serine protease panel) EUB0000735a KLKB1
observable: IC50

Problem: Form entry - test system: Plasma kallikrein (Homo sapiens); read-out: IC50; compound: CC(=O)C1=C(C)N(c2cccc(C(F)(F)F)c2)C(=O)N[C@@H]1c1ccc(C#N)nc1
Solution: > 30 µM

----------
biological target: Sigma intracellular receptor 2 (Homo sapiens); assay: Selectivity interaction (GPCR panel (PDSP screen)) EUB0000540a TMEM97
Sequence (Q5BJF2 whole entry): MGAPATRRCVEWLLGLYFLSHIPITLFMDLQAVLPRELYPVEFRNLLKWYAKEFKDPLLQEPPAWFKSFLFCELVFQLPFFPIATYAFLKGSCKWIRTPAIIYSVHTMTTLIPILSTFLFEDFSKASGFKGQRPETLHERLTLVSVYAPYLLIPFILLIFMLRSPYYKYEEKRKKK
observable: pKi
Convention used: pKi is expressed as -log10 of the molar concentration.

Problem: # pKi lookup, item O=C(Nc1cccnn1)N1CC(C/C=C/c2cncc(Oc3ccc(C(F)(F)F)cn3)n2)C1
Solution: 6.36

These entries and their values trace back to ChEMBL document CHEMBL5212743.
